Biological target: T1, CRBN, Q96SW2;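 also: pooled lentiviral library of zinc finger degron-EGFP fusions in mCherry-positive Jurkat cells, FACS-sorted after compound exposure, with degron abundance counted by next-generation sequencing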
T1 chain: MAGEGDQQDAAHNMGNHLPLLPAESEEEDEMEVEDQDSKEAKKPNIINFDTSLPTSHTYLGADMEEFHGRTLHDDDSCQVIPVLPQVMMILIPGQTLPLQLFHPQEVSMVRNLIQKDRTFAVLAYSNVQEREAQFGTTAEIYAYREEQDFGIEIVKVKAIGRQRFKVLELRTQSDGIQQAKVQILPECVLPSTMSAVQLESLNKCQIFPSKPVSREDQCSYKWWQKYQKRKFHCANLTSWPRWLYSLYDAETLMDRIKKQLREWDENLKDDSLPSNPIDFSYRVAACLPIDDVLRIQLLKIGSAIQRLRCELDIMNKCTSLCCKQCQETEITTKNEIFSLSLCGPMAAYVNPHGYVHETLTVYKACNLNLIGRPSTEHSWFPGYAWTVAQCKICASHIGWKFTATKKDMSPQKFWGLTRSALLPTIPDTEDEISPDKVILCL
Test: log2 fold change of degron read counts, EGFP-low vs EGFP+ sorted cells (limma voom), compound-induced degradation; higher = more compound-induced degradation of the degron-EGFP fusion; degrons are variants of IKZF1/3 zinc finger 2; compound dose not given here
Settings: Jurkat; 18 h; compound: thalidomide
Whole data set: some 8,300 sequences, median “log2 fold change of degron read counts, EGFP-low vs EGFP+ sorted cells (limma voom), compound-induced degradation” near -1.1, cut for the highest 2% near 3.2. The full list was thinned out, with the highest values kept by preference.
Assign log2 fold change of degron read counts to each entry below.
// return just the number, without any unit appended

Given the entry FQCPICGRDFTQKGNLLRHIKL [46F_47Q_49P_50I_52G_53R_54D_55F_67L_, Q9UKT9] , report its measured log2 fold change of degron read counts. 1.58

Please report the recorded log2 fold change of degron read counts for FSCEICGADFTQKGNLLRHIKL [46F_47S_49E_50I_52G_53A_54D_55F_67L_, Q9UKT9] . -0.832

GET /values?readout=log2 fold change of degron read counts&item= FMCDQCGAAFTQKGNLLRHIKL [46F_47M_49D_50Q_52G_53A_54A_55F_67L_, Q9UKT9] -2.32

Query: log2 fold change of degron read counts; subject: LWCEICGFKCTQKGNLLRHIKL [46L_47W_49E_50I_52G_53F_54K_55C_67L_, Q9UKT9] 1.24

Using the record for LICEICGFKCTQKGNLLRHIKL [46L_47I_49E_50I_52G_53F_54K_55C_67L_, Q9UKT9] , report its log2 fold change of degron read counts. 2.72

Look up log2 fold change of degron read counts: FRCPVCGAFFTQKGNLLRHIKL [46F_47R_49P_50V_52G_53A_54F_55F_67L_, Q9UKT9] 1.19

Which measured log2 fold change of degron read counts value corresponds to FSCEICGAPFTQKGNLLRHIKL [46F_47S_49E_50I_52G_53A_54P_55F_67L_, Q9UKT9] ? 1.99

Please give the measured log2 fold change of degron read counts for this sequence: FHCNICGAGFTQKGNLLRHIKL [46F_47H_49N_50I_52G_53A_54G_55F_67L_, Q9UKT9] -0.885

Would you kindly share the measured log2 fold change of degron read counts for FSCEVCGATFTQKGNLLRHIKL [46F_47S_49E_50V_52G_53A_54T_55F_67L_, Q9UKT9] ? 1.3

What value of measured log2 fold change of degron read counts is listed for LTCEICGFKCTQKGNLLRHIKL [46L_47T_49E_50I_52G_53F_54K_55C_67L_, Q9UKT9] ? 2.39

Consider the sequence FHCEICGAWFTQKGNLLRHIKL [46F_47H_49E_50I_52G_53A_54W_55F_67L_, Q9UKT9] and give its measured log2 fold change of degron read counts. -2.02

Sample FTCPVCGAQFTQKGNLLRHIKL [46F_47T_49P_50V_52G_53A_54Q_55F_67L_, Q9UKT9] — what was its log2 fold change of degron read counts? 2.72

What value of log2 fold change of degron read counts has been recorded for this entry: FKCEICGAPFTQKGNLLRHIKL [46F_47K_49E_50I_52G_53A_54P_55F_67L_, Q9UKT9] 2.51

So what's the measured log2 fold change of degron read counts for this one? FKCEVCGAQFTQKGNLLRHIKL [46F_47K_49E_50V_52G_53A_54Q_55F_67L_, Q9UKT9] -0.411

Looking for the measured log2 fold change of degron read counts of FCCEQCGAPFTQKGNLLRHIKL [46F_47C_49E_50Q_52G_53A_54P_55F_67L_, Q9UKT9] , can you help? -1.28

Quick one: log2 fold change of degron read counts of FKCEQCGAPFTQKGNLLRHIKL [46F_47K_49E_50Q_52G_53A_54P_55F_67L_, Q9UKT9] ? -1.19

Entry LSCEICGFKCTQKGNLLRHIKL [46L_47S_49E_50I_52G_53F_54K_55C_67L_, Q9UKT9] has what log2 fold change of degron read counts? 1.09

Record request: log2 fold change of degron read counts value, item FKCEVCGATFTQKGNLLRHIKL [46F_47K_49E_50V_52G_53A_54T_55F_67L_, Q9UKT9] -1.11

// returns reported log2 fold change of degron read counts for input LCCNQCGFRCTQKGNLLRHIKL [46L_47C_49N_50Q_52G_53F_54R_55C_67L_, Q9UKT9] -1.01

log2 fold change of degron read counts for FACEVCGATFTQKGNLLRHIKL [46F_47A_49E_50V_52G_53A_54T_55F_67L_, Q9UKT9] ? -0.11

Please look up its log2 fold change of degron read counts: FDCEQCGACFTQKGNLLRHIKL [46F_47D_49E_50Q_52G_53A_54C_55F_67L_, Q9UKT9] -2.3

Given the sequence FCCEICGADFTQKGNLLRHIKL [46F_47C_49E_50I_52G_53A_54D_55F_67L_, Q9UKT9] , what is its reported log2 fold change of degron read counts? -0.00478

I'd like to know its log2 fold change of degron read counts. The sequence in question is LMCPICGFSCTQKGNLLRHIKL [46L_47M_49P_50I_52G_53F_54S_55C_67L_, Q9UKT9] 2.69

What measured log2 fold change of degron read counts goes with LECEICGFKCTQKGNLLRHIKL [46L_47E_49E_50I_52G_53F_54K_55C_67L_, Q9UKT9] ? 2.53

So what's the measured log2 fold change of degron read counts for this one? FRCEVCGATFTQKGNLLRHIKL [46F_47R_49E_50V_52G_53A_54T_55F_67L_, Q9UKT9] 1.06

What value of measured log2 fold change of degron read counts is listed for FNCDICGAWFTQKGNLLRHIKL [46F_47N_49D_50I_52G_53A_54W_55F_67L_, Q9UKT9] ? -2.05

May I ask what log2 fold change of degron read counts has been recorded for LDCEICGFKCTQKGNLLRHIKL [46L_47D_49E_50I_52G_53F_54K_55C_67L_, Q9UKT9] ? -0.369

Given the sequence FGCEVCGATFTQKGNLLRHIKL [46F_47G_49E_50V_52G_53A_54T_55F_67L_, Q9UKT9] , what is its reported log2 fold change of degron read counts? 0.784

Can you share its log2 fold change of degron read counts? I mean this sequence: FCCPICGHFFTQKGNLLRHIKL [46F_47C_49P_50I_52G_53H_54F_55F_67L_, Q9UKT9] -1.48
